Biological target: HSET full length protein (Homo sapiens (Human))
Experiment: HSET ADP-Glo Assay S - 3 μM ATP
Settings: 5 nM HSET, 70 μg/mL microtubule, 80 min at rt, read-out: COMBINED HSET ADP GLO IC50
experimentalReadout: pIC50
Schema: pIC50 number; meaning minus log10 of the concentration expressed in molar units.

*Q* Please look at this molecule and report its pIC50: Cc1nc(-c2ccc3ccnc(N[C@H]4C[C@@](F)(C(=O)Nc5nc(C)c(C(=O)OC(C)(C)C)s5)C4)c3c2)no1
*A* 8.00

*Q* Quick one: give measured pIC50 for Cc1nc(NC(=O)[C@H]2C[C@@H](Nc3nccc4ccc(Cl)cc34)C2)sc1C(=O)OC(C)(C)C
*A* 5.79

*Q* Using known records, supply pIC50 for CCCOC(=O)c1sc(NC(=O)C[C@H](CCN(C)C)NC(=O)c2cccc(-c3noc(C)n3)c2)nc1C
*A* 6.25

*Q* Report measured pIC50; entry is Cc1nc(-c2ccc3ccnc(NC[C@@H](O)C(=O)Nc4nc(C)c(C(=O)OC(C)(C)C)s4)c3c2)no1
*A* 8.70

*Q* Tell us which pIC50 value is on record for CNCCC[C@@H](CC(=O)Nc1nc(C)c(C(C)(C)C)s1)Nc1nccc2ccc(-c3noc(C)n3)cc12
*A* 6.83

*Q* Please give the documented pIC50 of Cc1nc(NC(=O)C[C@H](CC#N)NC(=O)c2cccc(-c3cnn(C)c3)n2)sc1C(=O)OC(C)(C)C
*A* 5.89

*Q* Output measured pIC50 for this item: CCCOC(=O)c1sc(NC(=O)CCNC(=O)c2cc(C)cc(-c3noc(C)n3)c2)nc1C
*A* 7.89

###

Molecular target: HSET full length protein (Homo sapiens (Human), UniProt Q9BW19)
Sequence (Q9BW19 whole entry): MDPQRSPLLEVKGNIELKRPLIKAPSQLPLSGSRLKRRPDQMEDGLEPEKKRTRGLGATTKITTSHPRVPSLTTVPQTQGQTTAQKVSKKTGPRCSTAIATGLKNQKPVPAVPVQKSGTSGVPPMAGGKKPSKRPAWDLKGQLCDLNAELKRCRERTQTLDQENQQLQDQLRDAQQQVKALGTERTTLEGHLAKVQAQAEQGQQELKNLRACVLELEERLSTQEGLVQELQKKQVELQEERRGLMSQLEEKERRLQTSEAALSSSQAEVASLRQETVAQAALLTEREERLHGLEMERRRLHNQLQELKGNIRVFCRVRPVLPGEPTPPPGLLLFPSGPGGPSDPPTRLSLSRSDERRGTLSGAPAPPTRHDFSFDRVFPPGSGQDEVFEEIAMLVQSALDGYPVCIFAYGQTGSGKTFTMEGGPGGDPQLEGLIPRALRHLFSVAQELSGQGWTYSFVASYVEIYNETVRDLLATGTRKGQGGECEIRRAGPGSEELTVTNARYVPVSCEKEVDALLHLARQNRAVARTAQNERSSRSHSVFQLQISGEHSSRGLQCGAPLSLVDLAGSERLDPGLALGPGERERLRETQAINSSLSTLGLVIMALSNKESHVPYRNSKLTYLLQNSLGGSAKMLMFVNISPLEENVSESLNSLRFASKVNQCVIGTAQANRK
Test: HSET ADP-Glo Assay S - 3 μM ATP
Conditions: 5 nM HSET, 70 μg/mL microtubule, 80 min at rt, read-out: COMBINED HSET ADP GLO IC50
I'd appreciate it if you could supply pIC50 values for the items below.
By convention, pIC50 is the negative base-10 log of a molar concentration.

*Q* Please report pIC50 with HSET full length protein (Homo sapiens (Human), UniProt Q9BW19) for item Cc1nc(NC(=O)C[C@@H](CC#N)NC(=O)c2cccc(-c3cnn(C)c3)n2)sc1C(=O)OC(C)(C)C .
*A* 5.47

*Q* Fill in pIC50 for CCOC(=O)c1sc(NC(=O)CCNC(=O)c2cc(C)cc(-c3noc(C)n3)c2)nc1C tested with HSET full length protein (Homo sapiens (Human), UniProt Q9BW19).
*A* 7.36

*Q* Provide HSET full length protein (Homo sapiens (Human), UniProt Q9BW19) pIC50 reading for CCOC(=O)c1sc(NCCCNC(=O)c2cccc(-c3noc(C)n3)c2)nc1C .
*A* 4.77

*Q* State measured pIC50 of the compound COC(=O)c1sc(NC(=O)C[C@H](CC#N)NC(=O)c2cccc(-c3noc(C)n3)c2)nc1C with HSET full length protein (Homo sapiens (Human), UniProt Q9BW19).
*A* 6.87

*Q* Look up and report pIC50, with HSET full length protein (Homo sapiens (Human), UniProt Q9BW19) as system, for Cc1nc(-c2ccc3ccnc(N[C@H]4C[C@](F)(C(=O)Nc5nc(C)c(C(=O)OC(C)(C)C)s5)C4)c3c2)no1
*A* 6.66

*Q* Return reported pIC50 for target or system HSET full length protein (Homo sapiens (Human), UniProt Q9BW19), item CCCc1nc(-c2cc(NC(=O)[C@@H](O)CNc3nccc4ccc(-c5noc(C)n5)cc34)nn2C)no1 .
*A* 7.24

*Q* Identify measured pIC50 obtained with HSET full length protein (Homo sapiens (Human), UniProt Q9BW19) for CCCOC(=O)c1sc(C(=O)N2CC[C@H](Nc3nccc4ccc(-c5noc(C)n5)cc34)C2)nc1C .
*A* 7.96
